Reported Daily Body Weight of Tested Male Mice (Mean ± SD) values for the following compounds.
# Tested on: ICR mice
# procedureSummary: Acute toxicity experiment of single oral administration in mice
# Format: in vivo
# experimentalContext: Day 4; male; 1000 mg/Kg single oral dose
readout: Daily Body Weight of Tested Male Mice (Mean ± SD) (g)

compound="CS(=O)(=O)CCN1C(=O)CCC(N2C(=O)c3cccc(N)c3C2=O)C1=O (stereo not drawn)" quantitativereadout=24.4
compound="COCCCN1C(=O)CCC(N2C(=O)c3cccc(F)c3C2=O)C1=O (stereo not drawn)" quantitativereadout=24.6
compound="CCOCCN1C(=O)CCC(N2C(=O)c3cccc(F)c3C2=O)C1=O (stereo not drawn)" quantitativereadout=25.3
compound="CSCCN1C(=O)CCC(N2C(=O)c3cccc(N)c3C2=O)C1=O (stereo not drawn)" quantitativereadout=25.4
compound="COCCN1C(=O)CCC(N2C(=O)c3cccc(F)c3C2=O)C1=O (stereo not drawn)" quantitativereadout=24.7
compound="COCCN1C(=O)CCC(N2C(=O)c3c(N)ccc(O)c3C2=O)C1=O (stereo not drawn)" quantitativereadout=25.5
compound="C[S+]([O-])CCN1C(=O)CCC(N2C(=O)c3cccc(N)c3C2=O)C1=O (stereo not drawn)" quantitativereadout=24.9
compound="COCCCN1C(=O)CCC(N2C(=O)c3cccc(N)c3C2=O)C1=O (stereo not drawn)" quantitativereadout=26.6
compound="COCCN1C(=O)CCC(N2C(=O)c3cccc(NC(C)=O)c3C2=O)C1=O (stereo not drawn)" quantitativereadout=26.3

* * *

# System: ICR mice
# procedureSummary: Acute toxicity experiment of single oral administration in mice
# Type: in vivo
# experimentalContext: Day 6; female; 1000 mg/Kg single oral dose
readout: Daily Body Weight of Tested Female Mice (Mean ± SD) (g)

compound="CCOCCN1C(=O)CCC(N2C(=O)c3cccc(F)c3C2=O)C1=O (stereo not shown) [Example 20]" quantitativereadout=23.3
compound="COCCCN1C(=O)CCC(N2C(=O)c3ccc(N)cc3C2=O)C1=O (stereo not shown) [Example 18]" quantitativereadout=25.4
compound="Nc1cccc2c1C(=O)N(C1CCC(=O)N(CCO)C1=O)C2=O (stereo not shown) [Example 6]" quantitativereadout=22.4
compound="COCCN1C(=O)CCC(N2C(=O)c3cccc(C)c3C2=O)C1=O (stereo not shown) [Example 24]" quantitativereadout=24.7
compound="COCCCCN1C(=O)CCC(N2C(=O)c3cccc(N)c3C2=O)C1=O (stereo not shown) [Example 22]" quantitativereadout=25.3
compound="COCCN1C(=O)CCC(N2C(=O)c3cccc(F)c3C2=O)C1=O (stereo not shown) [Example 4]" quantitativereadout=24.2
compound="CNc1cccc2c1C(=O)N(C1CCC(=O)N(CCOC)C1=O)C2=O (stereo not shown) [Example 2]" quantitativereadout=24.6

* * *

# System: ICR mice
# procedureSummary: Acute toxicity experiment of single oral administration in mice
# Type: in vivo
# experimentalContext: Day 3; male; 1000 mg/Kg single oral dose
Reported Daily Body Weight of Tested Male Mice (Mean ± SD) values for the following compounds.
readout: Daily Body Weight of Tested Male Mice (Mean ± SD) (g)

compound="COCCN1C(=O)CCC(N2C(=O)c3cccc(C)c3C2=O)C1=O (stereo not drawn)" quantitativereadout=24.5
compound="COCCCN1C(=O)CCC(N2C(=O)c3cccc(N)c3C2=O)C1=O (stereo not drawn)" quantitativereadout=25.0
compound="COCCN1C(=O)CCC(N2C(=O)c3cccc(O)c3C2=O)C1=O (stereo not drawn)" quantitativereadout=24.5
compound="COCCCN1C(=O)CCC(N2C(=O)c3ccc(N)cc3C2=O)C1=O (stereo not drawn)" quantitativereadout=24.1
compound="CCOCCN1C(=O)CCC(N2C(=O)c3cccc(N)c3C2=O)C1=O (stereo not drawn)" quantitativereadout=21.3
compound="COCCN1C(=O)CCC(N2C(=O)c3cccc(NC(C)=O)c3C2=O)C1=O (stereo not drawn)" quantitativereadout=24.9
compound="COCCN1C(=O)CCC(N2C(=O)c3cccc(F)c3C2=O)C1=O (stereo not drawn)" quantitativereadout=23.6
compound="CCOCCN1C(=O)CCC(N2C(=O)c3cccc(F)c3C2=O)C1=O (stereo not drawn)" quantitativereadout=25.3
compound="C[S+]([O-])CCN1C(=O)CCC(N2C(=O)c3cccc(N)c3C2=O)C1=O (stereo not drawn)" quantitativereadout=24.9
